# protocol_description: Inhibition of HCV genotype 4a NS5A infected in Huh7 cells assessed as reduction in viral replication incubated 3 days and measured by bright Glo-luciferase reporter gene assay
Response field label: string, one of T (IC50 strictly below 0.01 nM) or F.

Regarding COC(=O)N[C@H](C(=O)N1CCC[C@H]1c1ncc(-c2ccc(C#CC#Cc3cnc([C@@H]4CCCN4C(=O)[C@H](NC(=O)OC)c4ccccc4)[nH]3)c(Sc3ccccc3)c2)[nH]1)C(C)C , kindly confirm whether its IC50 is beneath 0.01 nM.
T

Further cases:
Identify whether the molecule COC(=O)N[C@H](C(=O)N1CCC[C@H]1c1ncc(-c2ccc(C#CC#Cc3cnc([C@@H]4CCCN4C(=O)[C@H](NC(=O)OC)c4ccccc4)[nH]3)c(Oc3ccccc3)c2)[nH]1)C(C)C records IC50 below 0.01 nM.
T

Determine whether this molecule shows IC50 lower than 0.01 nM (ties excluded): COC(=O)N[C@H](C(=O)N1CCC[C@H]1c1ncc(-c2ccc(C#CC#Cc3cnc([C@@H]4CCCN4C(=O)[C@H](NC(=O)OC)c4ccccc4)[nH]3)c(N(C)c3ccccc3)c2)[nH]1)C(C)C
F

Find out if reported IC50 for COC(=O)N[C@H](C(=O)N1CCC[C@H]1c1ncc(-c2ccc(C#CC#Cc3cnc([C@@H]4CCCN4C(=O)[C@H](NC(=O)OC)c4ccccc4)[nH]3)c(-c3ccc(N(C)C)cc3)c2)[nH]1)C(C)C is less than 0.01 nM
F

Strictly below 0.01 nM in IC50? COC(=O)N[C@H](C(=O)N1CCC[C@H]1c1ncc(C#CC#Cc2c(F)cc(-c3cnc([C@@H]4CCCN4C(=O)[C@@H](NC(=O)OC)C(C)C)[nH]3)cc2-c2ccccc2)[nH]1)C(C)C
F

Hello, I'm reviewing records and need to know if IC50 of COC(=O)N[C@H](C(=O)N1CCC[C@H]1c1ncc(-c2ccc(C#CC#Cc3cnc([C@@H]4CCCN4C(=O)[C@H](NC(=O)OC)c4ccccc4)[nH]3)c(-c3ccc(N4CCN(C)CC4)cc3)c2)[nH]1)C(C)C is below 0.01 nM. Could you check?
F

Determine if COC(=O)N[C@H](C(=O)N1CCC[C@H]1c1ncc(C#CC#Cc2ccc(-c3cnc([C@@H]4CCCN4C(=O)[C@@H](NC(=O)OC)C(C)C)[nH]3)cc2-c2ccc3ccccc3c2)[nH]1)C(C)C shows IC50 strictly lower than 0.01 nM.
T

Please check: IC50 for COC(=O)N[C@H](C(=O)N1CCC[C@H]1c1ncc(-c2cc(F)c(C#CC#Cc3cnc([C@@H]4CCCN4C(=O)[C@H](NC(=O)OC)c4ccccc4)[nH]3)c(-c3ccccc3)c2)[nH]1)C(C)C , strictly under 0.01 nM or not?
F

---

# protocol_description: Inhibition of HCV genotype 4a NS5A infected in Huh7 cells assessed as reduction in viral replication incubated 3 days and measured by bright Glo-luciferase reporter gene assay
Listed compounds paired with reported IC50
Provide the reading as a plain figure in nM.

Examples with answers:
Complete the entry with IC50 for COC(=O)N[C@H](C(=O)N1CCC[C@H]1c1ncc(C#CC#Cc2ccc(-c3cnc([C@@H]4CCCN4C(=O)[C@@H](NC(=O)OC)C(C)C)[nH]3)cc2-c2cccc(-c3ccccc3)c2)[nH]1)C(C)C
0.019

Please report IC50 for the following compound: COC(=O)N[C@H](C(=O)N1CCC[C@H]1c1ncc(C#CC#Cc2ccc(-c3cnc([C@@H]4CCCN4C(=O)[C@@H](NC(=O)OC)C(C)C)[nH]3)cc2)[nH]1)c1ccccc1
0.423

Give the reported value of IC50 for this record: COC(=O)N[C@H](C(=O)N1CCC[C@H]1c1ncc(-c2ccc(C#CC#Cc3cnc([C@@H]4CCCN4C(=O)[C@@H](NC(=O)OC)C(C)C)[nH]3)cc2)[nH]1)c1ccccc1
0.123

Answer with the recorded IC50 of COC(=O)N[C@H](C(=O)N1CCC[C@H]1c1ncc(-c2ccc(C#CC#Cc3cnc([C@@H]4CCCN4C(=O)[C@H](NC(=O)OC)c4ccccc4)[nH]3)c(-c3cccc(C(C)(C)C)c3)c2)[nH]1)C(C)C only.
0.007

Give the reported value of IC50 for this record: COC(=O)N[C@H](C(=O)N1CCC[C@H]1c1ncc(C#CC#Cc2ccc(-c3cnc([C@@H]4CCCN4C(=O)[C@@H](NC(=O)OC)C(C)C)[nH]3)cc2-c2ccccc2)[nH]1)C(C)C
0.007

***
Identify the reported IC50 for the following entry. COC(=O)N[C@H](C(=O)N1CCC[C@H]1c1ncc(C#CC#Cc2c(C)cc(-c3cnc([C@@H]4CCCN4C(=O)[C@@H](NC(=O)OC)C(C)C)[nH]3)cc2-c2ccccc2)[nH]1)C(C)C
0.006

Note IC50 for the compound shown: COC(=O)N[C@H](C(=O)N1CCC[C@H]1c1ncc(-c2ccc(C#CC#Cc3cnc([C@@H]4CCCN4C(=O)[C@H](NC(=O)OC)c4ccccc4)[nH]3)c(-c3cccc(-c4ccccc4)c3)c2)[nH]1)C(C)C
0.011

---

# protocol_description: Inhibition of HCV genotype 3a NS5A infected in Huh7 cells assessed as reduction in viral replication incubated 3 days and measured by bright Glo-luciferase reporter gene assay
recorded_endpoint: IC50

As a guide, the following entries are already answered.
Entry COC(=O)N[C@H](C(=O)N1CCC[C@H]1c1ncc(-c2ccc(C#CC#Cc3cnc([C@@H]4CCCN4C(=O)[C@H](NC(=O)OC)c4ccccc4)[nH]3)c(-c3cccc(-c4ccccc4)c3)c2)[nH]1)C(C)C needs its IC50 filled in; supply it.
0.123 nM

Look up and state reported IC50 for COC(=O)N[C@H](C(=O)N1CCC[C@H]1c1ncc(-c2ccc(C#CC#Cc3cnc([C@@H]4CCCN4C(=O)[C@H](NC(=O)OC)c4ccccc4)[nH]3)c(Sc3ccccc3)c2)[nH]1)C(C)C
0.091 nM

Determine from records and report IC50 for COC(=O)N[C@H](C(=O)N1CCC[C@H]1c1ncc(C#CC#Cc2c(F)cc(-c3cnc([C@@H]4CCCN4C(=O)[C@@H](NC(=O)OC)C(C)C)[nH]3)cc2-c2ccccc2)[nH]1)C(C)C
0.459 nM

Please look at this compound and report its IC50: COC(=O)N[C@H](C(=O)N1CCC[C@H]1c1ncc(-c2ccc(C#CC#Cc3cnc([C@@H]4CCCN4C(=O)[C@H](NC(=O)OC)c4ccccc4)[nH]3)c(N3CCN(C)CC3)c2)[nH]1)C(C)C
> 10 nM

Now consider the entry below.
Given the compound COC(=O)N[C@H](C(=O)N1CCC[C@H]1c1ncc(-c2cc(F)c(C#CC#Cc3cnc([C@@H]4CCCN4C(=O)[C@H](NC(=O)OC)c4ccccc4)[nH]3)c(-c3ccccc3)c2)[nH]1)C(C)C , write its reported IC50.
0.02 nM

---

# protocol_description: Inhibition of HCV genotype 5a NS5A infected in Huh7 cells assessed as reduction in viral replication incubated 3 days and measured by bright Glo-luciferase reporter gene assay
recorded_endpoint: IC50
Don't forget the unit after the number, please.

Some solved entries appear below for comparison.
Consider the molecule COC(=O)N[C@H](C(=O)N1CCC[C@H]1c1ncc(-c2ccc(C#CC#Cc3cnc([C@@H]4CCCN4C(=O)[C@H](NC(=O)OC)c4ccccc4)[nH]3)c(Oc3ccccc3)c2)[nH]1)C(C)C and give its recorded IC50.
0.019 nM

Answer with the recorded IC50 of COC(=O)N[C@H](C(=O)N1CCC[C@H]1c1ncc(-c2ccc(C#CC#Cc3cnc([C@@H]4CCCN4C(=O)[C@H](NC(=O)OC)c4ccccc4)[nH]3)c(-c3ccccc3)c2)[nH]1)C(C)C only.
0.026 nM

// fetch IC50 given entry COC(=O)N[C@H](C(=O)N1CCC[C@H]1c1ncc(-c2ccc(C#CC#Cc3cnc([C@@H]4CCCN4C(=O)[C@H](NC(=O)OC)c4ccccc4)[nH]3)c(N3CCN(C)CC3)c2)[nH]1)C(C)C
3.1 nM

Find the measured IC50 of COC(=O)N[C@H](C(=O)N1CCC[C@H]1c1ncc(-c2ccc(C#CC#Cc3cnc([C@@H]4CCCN4C(=O)[C@H](NC(=O)OC)c4ccccc4)[nH]3)c(-c3ccc(N4CCN(C)CC4)cc3)c2)[nH]1)C(C)C and report it.
1.4 nM

Shift focus to the following entry.
// fetch IC50 given entry COC(=O)N[C@H](C(=O)N1CCC[C@H]1c1ncc(-c2ccc(C#CC#Cc3cnc([C@@H]4CCCN4C(=O)[C@H](NC(=O)OC)c4ccccc4)[nH]3)c(-c3ccc(-c4ccccc4)cc3)c2)[nH]1)C(C)C
0.131 nM

---

# protocol_description: Inhibition of HCV genotype 4a NS5A infected in Huh7 cells assessed as reduction in viral replication incubated 3 days and measured by bright Glo-luciferase reporter gene assay
recorded_endpoint: pIC50
Keep in mind that pIC50 stands for -log10 of concentration in molar terms.

Look up and report measured pIC50 for this entry: COC(=O)N[C@H](C(=O)N1CCC[C@H]1c1ncc(C#CC#Cc2ccc(-c3cnc([C@@H]4CCCN4C(=O)[C@@H](NC(=O)OC)C(C)C)[nH]3)cc2-c2ccc(C(C)(C)C)cc2)[nH]1)C(C)C
10.96

Give reported pIC50 value for COC(=O)N[C@H](C(=O)N1CCC[C@H]1c1ncc(-c2ccc(C#CC#Cc3cnc([C@@H]4CCCN4C(=O)[C@H](NC(=O)OC)c4ccccc4)[nH]3)cc2)[nH]1)C(C)C
10.44

Input COC(=O)N[C@H](C(=O)N1CCC[C@H]1c1ncc(-c2ccc(C#CC#Cc3cnc([C@@H]4CCCN4C(=O)[C@H](NC(=O)OC)c4ccccc4)[nH]3)c(-c3ccc(-c4ccccc4)cc3)c2)[nH]1)C(C)C , output reported pIC50.
11.22

Now examine the next entry.
Return pIC50 for the following compound: COC(=O)N[C@H](C(=O)N1CCC[C@H]1c1ncc(C#CC#Cc2ccc(-c3cnc([C@@H]4CCCN4C(=O)[C@H](NC(=O)OC)c4ccccc4)[nH]3)cc2)[nH]1)C(C)C
10.92
